System under test: T1, ITGA2 protein on the surface of human tumor cells (HuCCT1, A431) (human, UniProt P17301 30-1181)
T1 construct: whole, on cells; Endogenously expressed on the cell lines; the cell line of each entry is named under assay or readout; also called Integrin alpha-2; ITGA2-positive HuCCT1 cells
T1 sequence (looked up): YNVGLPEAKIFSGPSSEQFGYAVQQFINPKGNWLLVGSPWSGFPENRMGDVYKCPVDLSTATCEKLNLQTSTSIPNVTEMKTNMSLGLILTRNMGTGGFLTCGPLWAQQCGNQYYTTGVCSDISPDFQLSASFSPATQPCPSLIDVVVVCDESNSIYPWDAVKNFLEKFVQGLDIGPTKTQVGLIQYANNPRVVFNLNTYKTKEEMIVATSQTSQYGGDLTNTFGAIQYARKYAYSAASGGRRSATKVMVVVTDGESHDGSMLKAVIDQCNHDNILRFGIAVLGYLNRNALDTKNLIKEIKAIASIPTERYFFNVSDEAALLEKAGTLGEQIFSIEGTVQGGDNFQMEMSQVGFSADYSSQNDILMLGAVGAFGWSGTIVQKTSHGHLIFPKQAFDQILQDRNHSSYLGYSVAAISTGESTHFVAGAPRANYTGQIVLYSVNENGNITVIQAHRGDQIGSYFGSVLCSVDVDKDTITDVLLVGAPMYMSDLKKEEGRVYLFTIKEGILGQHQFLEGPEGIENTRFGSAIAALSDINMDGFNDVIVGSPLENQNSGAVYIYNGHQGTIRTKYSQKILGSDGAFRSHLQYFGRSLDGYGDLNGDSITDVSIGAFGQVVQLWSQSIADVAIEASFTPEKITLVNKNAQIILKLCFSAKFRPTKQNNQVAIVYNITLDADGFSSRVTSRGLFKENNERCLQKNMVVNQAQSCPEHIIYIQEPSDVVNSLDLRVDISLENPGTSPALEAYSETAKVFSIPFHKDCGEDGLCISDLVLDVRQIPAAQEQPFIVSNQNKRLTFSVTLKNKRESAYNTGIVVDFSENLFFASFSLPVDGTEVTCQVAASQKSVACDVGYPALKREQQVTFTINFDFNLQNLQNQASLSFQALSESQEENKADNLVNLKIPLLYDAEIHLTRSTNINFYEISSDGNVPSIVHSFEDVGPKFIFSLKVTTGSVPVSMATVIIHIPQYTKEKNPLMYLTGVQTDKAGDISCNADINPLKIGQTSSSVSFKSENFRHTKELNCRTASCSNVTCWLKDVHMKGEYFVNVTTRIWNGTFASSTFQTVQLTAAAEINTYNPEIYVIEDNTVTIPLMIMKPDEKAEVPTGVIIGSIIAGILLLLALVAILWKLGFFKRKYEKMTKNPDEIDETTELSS
Assay procedure: flow cytometry on HuCCT1 cells, goat anti-human IgG (H+L) secondary antibody

Binder	EC50, nM
Humanized antibody FS002-C58 (antibody, human IgG1, kappa, V domains shown, IgG1 heavy chain, kappa light chain) VH: EVQLLESGGGVVQPGRSLRLSCAASGFTFSSYAMHWVRQAPGKGLEWVAVISYDGSNKYYADSVKGRFTISRDNSKNTLYLQMNSLRAEDTAVYYCARGKYNWFDPWGQGTLVTVSS VL: EIVLTQSPATLSLSPGERATLSCRASQSVYSSLAWYQQKPGQAPKLLIYDASNRATGVPARFSGSGSGTDFTLTISSLEPEDFALYYCQHRQHWPLTFGGGTKVEIKR	9.48
Vatelizumab (antibody, V domains shown) VH: QVQLQESGPGLVKPSETLSLTCTVSGFSLTNYGIHWIRQPPGKGLEWLGVIWARGFTNYNSALMSRLTISKDNSKNQVSLKLSSVTAADTAVYYCARANDGVYYAMDYWGQGTLVTVSS VL: DFVMTQSPAFLSVTPGEKVTITCSAQSSVNYIHWYQQKPDQAPKKLIYDTSKLASGVPSRFSGSGSGTDYTFTISSLEAEDAATYYCQQWTTNPLTFGQGTKVEIK	0.793

Measured values drawn from patent EP4545563A1 for this set.
